Target: T1, MMP-26 catalytic domain, tagged with hexa-histidine (human, UniProt Q9NRE1 90-261)
T1 construct: the forward primer adds Met-Ala before it; also called MMP-26 target protein; Matrilysin-2; not shown: Also any N-terminal residues added by the forward primer (Met-Ala according to our card; the primers were not visible to me)
T1 sequence: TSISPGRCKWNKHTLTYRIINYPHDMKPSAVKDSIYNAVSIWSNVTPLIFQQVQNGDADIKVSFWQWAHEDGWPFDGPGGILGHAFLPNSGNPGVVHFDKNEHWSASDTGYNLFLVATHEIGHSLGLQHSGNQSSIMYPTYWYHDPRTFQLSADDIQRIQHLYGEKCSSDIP
Assay: bead-based ELISA, MMP-26 on nickel beads, IgG4 culture supernatant
Endpoint: F > B (fold over background)

[
  {
    "Binder": "B01 (antibody, human IgG4, V domains shown, whole human IgG4) VH: EVQLLESGGGLVQPGGSLRLSCAASGFTFSTYDMLWVRQAPGKGLEWVSSISPSGGSTSYADSVKGRFTISRDNSKNTLYLQLNSLRAEDTAVYYCAREKASDLSGTYSEALDHWGQGTLVTVSS VL: DIQMTQSPGTLSLSPGERATLSCRASQSVSSSYFAWYQQKPGQAPRLLIYDASSRATGIPDRFSGSGSGTDFTLTISRLEPEDFAVYYCQQYGSSPPMYTFGQGTKLEIKR",
    "Unit tag": "fold over background",
    "Recorded result": 2.3
  },
  {
    "Binder": "B12 (antibody, human IgG4, V domains shown, whole human IgG4) VH: EVQLLESGGGLVQPGGSLRLSCAASGFTFSLYVMYWVRQAPGKGLEWVSYISSSGGITHYADSVKGRFTISRDNSKNTLYLQMNSLRAEDTAVYYCARGSIVVVPAAIRSNNWFDPWGQGTLVTVSS VL: QSALTQPPSVSVAPGQTARISCGGDNIDTKNVQWYQQRPGQAPVLVVYDNSDRPSAIPERFSGSNSGTTATLTISRVEAGDEADYYCQVFDGRSDHPVFGGGTKLTV",
    "Unit tag": "fold over background",
    "Recorded result": 2.83
  },
  {
    "Binder": "A11 (antibody, human IgG4, V domains shown, whole human IgG4; the VHC entry has one unread residue (printed z, K75z)) VH: EVQLLESGGGLVQPGGSLRLSCAASGFTFSWYTMMWVRQAPGKGLEWVSRISPSGGHTLYADSVKGRFTISRDNSZNTLYLQMNSLRAEDTAVYYCARDTWDDYYDSSGYYNDFDYWGQGTLVTVSS VL: QSALTQPPSVSLAPGQTARITCGGNNIGTKSVHWYQQKPGQAPVLVVYDDSDRPSGIPERFSGSNSGNTATLTISRVEAGDEADYYCQVWDSGSDHQVFGGGTKLTVLG",
    "Unit tag": "fold over background",
    "Recorded result": 1.7
  }
]

These measurements were taken from patent US7514534.
